- Procedure summary: In vivo kinetics experiment (radioactivity distribution)
- Design: species or system Wistar male rat
- Condition context: 60 min after administration; rat i.v.; mean ± SD
Catalogue of Adrenal gland/muscle ratio of radioactivity accumulation readings, one per entry.
Lab note: jot the number down without any unit.

Example molecules with recorded Adrenal gland/muscle ratio of radioactivity accumulation:
Molecule: CCn1c(-c2cncc(Cn3ccnc3)c2)nc2ccc([123I])cc21 [[^123I] 608]
Endpoint result: 113.23
//
Molecule: CC(C)n1c(-c2cncc(Cn3ccnc3)c2)nc2ccc([123I])cc21 [[^123I] 606]
Endpoint result: 168.08
//
Molecule: FCCn1c(-c2cncc(Cn3ccnc3)c2)nc2ccc([123I])cc21 [[^123I] 604]
Endpoint result: 130.19

// query Adrenal gland/muscle ratio of radioactivity accumulation value for entry FCCn1c(-c2cncc(Cn3cncc3[123I])c2)nc2cc(F)c(Cl)cc21 [[^123I] 610]
147.93

Which measured Adrenal gland/muscle ratio of radioactivity accumulation value corresponds to Fc1cc2nc(-c3cncc(Cn4ccnc4)c3)n(Cc3ccc([123I])cc3)c2cc1Cl [[^123I] 605] ?
10.90

Could you tell me which Adrenal gland/muscle ratio of radioactivity accumulation is on file for COC(=O)c1cncn1[C@H](C)c1ccc(I)cc1 [[^123I] IMTO, (R)-[^123I]iodometomidate, reference compound] ?
120.14

I have this molecule here, Cn1c(-c2cncc(Cn3ccnc3)c2)nc2ccc([123I])cc21 [[^123I] 607] , and I need its recorded Adrenal gland/muscle ratio of radioactivity accumulation.
177.15

Returns the measured Adrenal gland/muscle ratio of radioactivity accumulation for the input molecule. Input: COc1cc([123I])cc2c1nc(-c1cncc(Cn3ccnc3)c1)n2C1CC1 [[^123I] 609]
103.59

The origin of these recorded values is patent US10358434B2.
